Tested on: Staphylococcus aureus (methicillin-resistant and sensitive clinical isolates; ATCC29213)
Test: MIC by micro broth dilution (CLSI), Staphylococcus aureus
Assay type: cell-based
Conditions: Standard strain ATCC29213, read-out: MIC
From the text: The test bacteria were one strain of clinically isolated carbapenem-resistant Escherichia coli, two strains of carbapenem-resistant Acinetobacter baumannii, two strains of methicillin-resistant Staphylococcus aureus, two strains of sensitive Staphylococcus aureus, and 7 strains of Klebsiella pneumoniae. Duplicate strains isolated from the same patient were eliminated. […] The results of drug susceptibility test were statistically analyzed by WHONET software (version 5.6).
Measured MIC, listed per entry for reference.
Please respond with the number in µg/mL and leave the unit unwritten.

O=[N+]([O-])c1cc(F)c2cccnc2c1O [Example 106, 5-fluoro-7-nitroquinolin-8-ol]; 16
O=[N+]([O-])c1ccc2c(C(F)F)ccnc2c1O [Example 81, 4-(difluoromethyl)-7-nitroquinolin-8-ol]; 16
CCN(CC)Cc1cnc2c(O)c([N+](=O)[O-])ccc2c1 [Example 98]; 64
O=[N+]([O-])c1cc(CO)c2cccnc2c1O [Example 109, 5-(hydroxymethyl)-7-nitroquinolin-8-ol]; 64
COC(=O)N1CCN(c2ccnc3c(O)c([N+](=O)[O-])ccc23)CC1 [Example 26]; 128

Now for a further compound.
The compound O=[N+]([O-])c1cc(Cl)c2c(Oc3ccccc3)ccnc2c1O [Example 47, 5-Chloro-7-nitro-4-phenoxyquinolin-8-ol] showed MIC equal to 32

* * *

Tested on: Mouse prostate cancer cell line RM1
Assay: Inhibitory activity on cancer cells, CellTiter-Glo viability, RM1
Type: cell-based
Details: 72 hours treatment
Description: HUVEC (purchased from Allcells Biological Technology (Shanghai) Co., Ltd.); UM-UC-3 (ATCC); LNCaP (ATCC); RM-1 (purchased from Nanjing Cobioer Biosciences Co., Ltd.) (1) On the first day, the cells were seeded in a 96-well plate, and the previous medium was poured off. 5 mL of DPBS was added to wash the cells, and then removed by a pipette and discarded. […] New corresponding medium was added, and pipetted to resuspend the cells evenly, and the cells were then counted with an automated cell counter. […]
Measured IC50, listed per entry for reference.
Please respond with the number in µM and leave the unit unwritten.

O=[N+]([O-])c1cc(Cl)c2c(F)ccnc2c1O; 21.7
O=[N+]([O-])c1ccc2c(C3CC3)ccnc2c1O; 3.42
CC(C)C(=O)N1CCN(c2ccnc3c(O)c([N+](=O)[O-])cc(Cl)c23)CC1; 4.29
COCCCOC1CCN(c2ccnc3c(O)c([N+](=O)[O-])cc(Cl)c23)CC1.Cl.Cl [Example 54, dihydrochloride]; 1.62
CN(C)CCOc1ccnc2c(O)c([N+](=O)[O-])ccc12; 53.6
O=[N+]([O-])c1cc(Cl)c2c(OCC3CC3)ccnc2c1O; 3.06
O=[N+]([O-])c1cc(Cl)c2c(C3CCCCC3)ccnc2c1O; 0.86
COc1ccnc2c(O)c([N+](=O)[O-])ccc12; 6.8
O=[N+]([O-])c1cc(Cl)c2c(OC3CCCCC3)ccnc2c1O; 1.13
CC(=O)N1CCN(c2ccnc3c(O)c([N+](=O)[O-])cc(Cl)c23)CC1; 18

The compound Cc1cnc2c(O)c([N+](=O)[O-])ccc2c1 showed IC50 equal to 3.18

The compound CC(C)OC(=O)N1CCN(c2ccnc3c(O)c([N+](=O)[O-])cc(Cl)c23)CC1 showed IC50 equal to 0.91

The compound O=[N+]([O-])c1ccc2c(C3CCCCC3)ccnc2c1O showed IC50 equal to 0.6

The compound CCOC(=O)C1CCN(c2ccnc3c(O)c([N+](=O)[O-])cc(F)c23)CC1 showed IC50 equal to 2.51

The compound COC(=O)[C@@H]1CCCN1c1ccnc2c(O)c([N+](=O)[O-])ccc12 showed IC50 equal to 17

The compound Cl.O=[N+]([O-])c1cc(Cl)c2c(C(F)(F)F)ccnc2c1O [Example 73, hydrochloride] showed IC50 equal to 2.63

Origin of values: patent US20240246916A1
